# Test system: Histophilus somni
# assay method text: Antimicrobial activity against Histophilus somni 23N2359 after 17 hrs by serial agar dilution method
# Type: functional
# experimental parameters: 23N2359, 17 h
reported endpoint: MIC

| compound | assay result |
| --- | --- |
| CC/C(CCCCC/C=C\CCCCCCCC(=O)O)=N/O | > 50 µg/mL |
| CCC(=O)CCCCC/C=C\CCCCCCCC(=O)O | > 50 µg/mL |
| CC[C@H](O)CCCCC/C=C\CCCCCCCC(=O)O | > 50 µg/mL |
| CCC1(CCCCC/C=C\CCCCCCCC(=O)O)OCCO1 | > 50 µg/mL |
| CC[C@@H](O)CCCCC/C=C\CCCCCCCC(=O)O (stereo in doubt; 1) | > 50 µg/mL |
| CC[C@@H](O)CCCCC/C=C\CCCCCCCC(=O)NS(C)(=O)=O | > 50 µg/mL |
| CC[C@@H](O)CCCCC/C=C\CCCCCCCC(N)=O | > 50 µg/mL |
| CC[C@@H](O)CCCCC/C=C\CCCCCCCc1nnn[nH]1 | 50 µg/mL |
| CC[C@@H](O)CCCCC/C=C\CCCCCCCC(=O)NO | > 50 µg/mL |

* * *

# System: Mannheimia haemolytica
# assay method text: Antimicrobial activity against Mannheimia haemolytica N811 after 17 hrs by serial agar dilution method
# Assay type: functional
# experimental parameters: Mannheimia haemolytica, N811, 17 h; read-out: MIC

| compound | MIC (µg/mL) |
| --- | --- |
| CCC(=O)CCCCC/C=C\CCCCCCCC(=O)O | 6.25 |
| CC[C@@H](O)CCCCC/C=C\CCCCCCCC(=O)O (stereo in doubt; 1) [PALEIC ACID] | 1.56 |
| CCC1(CCCCC/C=C\CCCCCCCC(=O)O)OCCO1 | 25 |
| CC[C@@H](O)CCCCC/C=C\CCCCCCCc1nnn[nH]1 | 50 |
| CC[C@@H](O)CCCCC/C=C\CCCCCCCC(N)=O | 12.5 |
| CC[C@@H](O)CCCCC/C=C\CCCCCCCC(=O)NO | 25 |
| CC[C@H](O)CCCCC/C=C\CCCCCCCC(=O)O | 0.78 |
| CC/C(CCCCC/C=C\CCCCCCCC(=O)O)=N/O | 1.56 |
| CC[C@@H](O)CCCCC/C=C\CCCCCCCC(=O)NS(C)(=O)=O | 50 |

* * *

# Test system: Pasteurella multocida
# assay method text: Antimicrobial activity against Pasteurella multocida Kobe after 17 hrs by serial agar dilution method
# Format: functional

| molecule | experimental target | MIC |
| --- | --- | --- |
| CC/C(CCCCC/C=C\CCCCCCCC(=O)O)=N/O | Pasteurella multocida | > 50 µg/mL |
| CC[C@@H](O)CCCCC/C=C\CCCCCCCC(N)=O | Pasteurella multocida | > 50 µg/mL |
| CC[C@@H](O)CCCCC/C=C\CCCCCCCC(=O)O (stereo in doubt; 1) | Pasteurella multocida | > 50 µg/mL |
| CCC1(CCCCC/C=C\CCCCCCCC(=O)O)OCCO1 | Pasteurella multocida | 50 µg/mL |
| CCC(=O)CCCCC/C=C\CCCCCCCC(=O)O | Pasteurella multocida | > 50 µg/mL |
| CC[C@@H](O)CCCCC/C=C\CCCCCCCc1nnn[nH]1 | Pasteurella multocida | 50 µg/mL |
| CC[C@@H](O)CCCCC/C=C\CCCCCCCC(=O)NS(C)(=O)=O | Pasteurella multocida | > 50 µg/mL |
| CC[C@H](O)CCCCC/C=C\CCCCCCCC(=O)O | Pasteurella multocida | > 50 µg/mL |
| CC[C@@H](O)CCCCC/C=C\CCCCCCCC(=O)NO | Pasteurella multocida | > 50 µg/mL |

* * *

# Tested on: Pasteurella multocida
# assay method text: Antimicrobial activity against Pasteurella multocida TS-8 after 17 hrs by serial agar dilution method
# Assay type: functional
# experimental parameters: Pasteurella multocida, TS-8, 17 h; read-out: MIC

| compound | MIC |
| --- | --- |
| CC[C@@H](O)CCCCC/C=C\CCCCCCCC(=O)NS(C)(=O)=O | 25 µg/mL |
| CCC1(CCCCC/C=C\CCCCCCCC(=O)O)OCCO1 | 25 µg/mL |
| CC[C@@H](O)CCCCC/C=C\CCCCCCCC(N)=O | 50 µg/mL |
| CCC(=O)CCCCC/C=C\CCCCCCCC(=O)O | 50 µg/mL |
| CC/C(CCCCC/C=C\CCCCCCCC(=O)O)=N/O | 25 µg/mL |
| CC[C@H](O)CCCCC/C=C\CCCCCCCC(=O)O | 6.25 µg/mL |
| CC[C@@H](O)CCCCC/C=C\CCCCCCCC(=O)NO | 50 µg/mL |
| CC[C@@H](O)CCCCC/C=C\CCCCCCCC(=O)O (stereo in doubt; 1) | 3.13 µg/mL |
| CC[C@@H](O)CCCCC/C=C\CCCCCCCc1nnn[nH]1 | 50 µg/mL |

The reported measurements were obtained from ChEMBL document CHEMBL1255519.
